Tested on: LOX IMVI
Experiment: NCI tumour cell line growth inhibition, 48 h
The source made the active and inactive calls. Cut-off read from the data, not from the text of the source: active = GI50 up to about 1.1 µM and inactive = higher.
Use one of these outcomes when replying: active, inactive

# MOLECULE, DISCRETE LABEL
data = [
    ("CCN(CC)CCCNc1ccc2ncn3c4ccc(O)cc4c(=O)c1c23", "active"),
    ("COc1cc(/C=C2/C(=O)N(C(=O)OCC(C)C)C(Cc3cc(OC)c(OC)c(C)c3OC)C(=O)N2Cc2ccccc2)c(OC)c(C)c1OC (stereo unspecified)", "inactive"),
    ("Cn1nnc2c(C(N)=O)ncn2c1=O [TEMOZOLOMIDE]", "inactive"),
    ("CCOc1ccc(C(C)c2cc3c(cc2OC)OCO3)cc1 (stereo unspecified)", "active"),
]

Input line: Called result for CSc1nc2c(nc(N)n2C2OC(COC(C)=O)C(OC(C)=O)C(OC(C)=O)C2OC(C)=O)c(=O)n1C (stereo unspecified)
Output line: inactive

Input line: Called result for Nc1cc(N)c(/N=N/c2cccc3c(S(=O)(=O)O)cccc23)cc1/N=N/c1cc([N+](=O)[O-])ccc1O
Output line: inactive

Input line: Called result for COc1cc(/C=C/C(=O)c2sc(Nc3ccccc3)nc2C)ccc1O
Output line: inactive

Input line: Called result for Nc1ccccc1C(=O)NNC(=O)c1ccccc1N
Output line: inactive

Input line: Called result for COc1c(C(=O)O)oc2c(OC)cccc12
Output line: inactive

Input line: Called result for COC(=O)c1ccc(C)cc1CC1Cc2cc(C)ccc2C1=O (stereo unspecified)
Output line: inactive

Input line: Called result for O=C(c1ccc(Cl)cc1)c1ccc(OCCCCCCCCCCOc2ccc(C(=O)c3ccc(Cl)cc3)cc2)cc1
Output line: inactive

Input line: Called result for COc1cc(C2OC(N)=C(C#N)C3=C2C(C)CCC3)cc(OC)c1OC (stereo unspecified)
Output line: inactive

Input line: Called result for COc1ccc2c(c1)c1nn(CCN(C)C)c3ccc4c(=O)n(CCN(C)C)c(=O)n2c4c13
Output line: active

Input line: Called result for CCCC(O)[C@@H](O)c1ccc2c(c1O)C(=O)c1c(OC)cccc1C2=O (stereo partly specified)
Output line: inactive

Input line: Called result for COC(=O)C1=Nc2c(C)nn(-c3ccccc3)c2N=C(c2ccc([N+](=O)[O-])cc2)C1
Output line: inactive

Input line: Called result for CC(=O)Nc1ccc(-c2nnc(SCC(=O)Nc3ccccc3[N+](=O)[O-])o2)cc1
Output line: inactive

Input line: Called result for NC(=O)c1nnsc1N/N=C/c1ccc([N+](=O)[O-])cc1
Output line: inactive
